I'd appreciate it if you could supply inhibition at 10 µM values for the items below.
Molecular target: Amine oxidase [flavin-containing] B (Homo sapiens)
Sequence (P27338 whole entry): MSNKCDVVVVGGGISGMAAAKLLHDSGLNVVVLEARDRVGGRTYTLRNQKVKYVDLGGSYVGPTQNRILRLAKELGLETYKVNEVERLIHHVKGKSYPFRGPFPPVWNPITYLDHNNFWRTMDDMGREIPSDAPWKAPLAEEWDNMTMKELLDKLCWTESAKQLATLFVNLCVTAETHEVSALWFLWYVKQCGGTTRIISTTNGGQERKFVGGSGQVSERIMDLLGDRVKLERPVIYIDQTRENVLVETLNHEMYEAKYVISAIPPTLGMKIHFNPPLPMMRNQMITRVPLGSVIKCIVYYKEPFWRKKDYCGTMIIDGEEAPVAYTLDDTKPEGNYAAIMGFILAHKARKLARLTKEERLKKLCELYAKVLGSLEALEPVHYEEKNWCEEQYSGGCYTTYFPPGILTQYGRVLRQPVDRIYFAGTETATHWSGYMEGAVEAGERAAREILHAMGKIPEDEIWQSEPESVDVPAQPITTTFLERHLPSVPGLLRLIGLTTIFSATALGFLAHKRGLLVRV
Conditions: 0.5 h, read-out: INH
Description: Inhibition of recombinant human MAO-B at 10 uM incubated for 30 mins by fluorescence-based method
Answers are plain numbers, in %.

Check out these entries, answers already filled in.
C#CCN(C)Cc1ccccc1 : 0.14
C[N+]1=Cc2c(O)ccc3[nH]cc(c23)CC1 : 31
C[N+]1([O-])CCc2c[nH]c3ccc(O)c(c23)C1 (centres undefined) : 27

Next:
Problem: Requested read-out: inhibition at 10 µM. Entry: "CN1CCc2c[nH]c3ccc(O)c(c23)C1"
Solution: 22

====

I'd appreciate it if you could supply pIC50 values for the items below.
Target: Amine oxidase [flavin-containing] A (Homo sapiens)
Sequence (P21397 whole entry): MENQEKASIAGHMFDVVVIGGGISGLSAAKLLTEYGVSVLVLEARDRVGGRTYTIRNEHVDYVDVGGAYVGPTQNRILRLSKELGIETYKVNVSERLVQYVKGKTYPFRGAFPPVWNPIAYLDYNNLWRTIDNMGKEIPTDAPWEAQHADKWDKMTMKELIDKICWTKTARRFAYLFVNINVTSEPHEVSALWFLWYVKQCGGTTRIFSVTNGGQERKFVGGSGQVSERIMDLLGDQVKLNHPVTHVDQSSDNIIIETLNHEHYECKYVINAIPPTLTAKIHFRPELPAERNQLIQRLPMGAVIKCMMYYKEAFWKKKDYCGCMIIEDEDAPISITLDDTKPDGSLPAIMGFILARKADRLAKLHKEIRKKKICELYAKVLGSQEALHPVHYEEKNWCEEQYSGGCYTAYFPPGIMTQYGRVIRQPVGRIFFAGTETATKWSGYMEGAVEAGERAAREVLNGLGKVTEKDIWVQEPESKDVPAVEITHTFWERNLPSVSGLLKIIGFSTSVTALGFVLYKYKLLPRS
Numbers only, as −log10 of the molar value.

Check out these entries, answers already filled in.
C[N+]1([O-])CCc2c[nH]c3ccc(O)c(c23)C1 (stereo unspecified) : 5.85
C[N+]1=Cc2c(O)ccc3[nH]cc(c23)CC1 : 6.05

Problem: Requested read-out: pIC50. Entry: "CN1CCc2c[nH]c3ccc(O)c(c23)C1"
Solution: 5.85

Measured values drawn from ChEMBL document CHEMBL4610078 for this set.
